From: paper PMC5689723

Tested on: v6A3 cells
Procedure details: MTT assay, v6A3 cells
Assay type: cell-based
Measurement context: Homo sapiens, PC-3M, 48 h, 5000 cells per well, triplicate, 562 nm, after continuous passage for one month, P< 0.05 vs PC3M, read-out: DOX IC50 of v6A3
Quantity name: IC50 (µM)

- Molecule smiles: "COc1cccc2c1C(=O)c1c(O)c3c(c(O)c1C2=O)C[C@@](O)(C(=O)CO)C[C@@H]3O[C@H]1C[C@H](N)[C@H](O)[C@H](C)O1"
  Target desc: "v6A3 cells"
  Quantity name: "IC50"
  Result: 0.14
